Experiment: AUC (0 to 32 hrs) in Wistar rat at 10 mg/kg, po by LC-MS/MS analysis
Type: ADME, organism-based
Parameters: time < 32 hr, dose 10 mg/kg, route oral
Settings: plasma

>  <Sample smiles>
CCc1cc(-c2noc(-c3cc(C)nc(N(CC)CC)c3)n2)cc(C)c1OC[C@@H](O)CNC(=O)CO

>  <AUC(0-t) at 32 h>
16.5 µg·h/mL

$$$$

----------
Test: Cmax in Wistar rat at 1 mg/kg, po by LC-MS/MS analysis
Assay type: ADME, organism-based
Set-up: dose 1 mg/kg, route oral
Conditions: in vivo
Readout type: Cmax

>  <Sample smiles>
CCc1cc(-c2noc(-c3cc(C)nc(C4CCCC4)c3)n2)cc(C)c1OC[C@@H](O)CNC(=O)CO

>  <Readout type>
Cmax

>  <Test value>
49 ng/mL

$$$$

----------
This section presents compounds with their documented Tmax values.
Assay: Tmax in Wistar rat at 10 mg/kg, po by LC-MS/MS analysis
Assay type: ADME, organism-based
Parameters: dose 10 mg/kg, route oral
Conditions: in vivo

>  <Sample smiles>
CCc1cc(-c2noc(-c3cc(C)nc(N(CC)CC)c3)n2)cc(C)c1OC[C@@H](O)CNC(=O)CO

>  <Tmax>
2 h

$$$$
>  <Sample smiles>
CCc1cc(-c2noc(-c3cc(C)nc(C(CC)CC)c3)n2)cc(C)c1OC[C@@H](O)CNC(=O)CO

>  <Tmax>
0.5 h

$$$$

----------
Test: Plasma concentration in Wistar rat at 10 mg/kg, po after 6 hrs
Assay type: ADME, organism-based
Parameters: dose 10 mg/kg, route oral
Label -1 if concentration at 6 h falls below 500 ng/mL; label 1 in every other case.

>  <Sample smiles>
CCc1cc(-c2noc(-c3cc(C)nc(N(CC)CC)c3)n2)cc(C)c1OC[C@@H](O)CO

>  <Label value>
-1

$$$$
>  <Sample smiles>
CCc1cc(-c2noc(-c3cc(C)nc(N(CC)CC)c3)n2)cc(C)c1OC[C@@H](O)CNC(=O)CO

>  <Label value>
1

$$$$
>  <Sample smiles>
CCc1cc(-c2nnc(-c3cc(C)nc(N(CC)CC)c3)o2)cc(C)c1OC[C@@H](O)CO

>  <Label value>
-1

$$$$
>  <Sample smiles>
CCc1cc(-c2nc(-c3cc(C)nc(N(CC)CC)c3)no2)cc(C)c1OC[C@@H](O)CNC(=O)CO

>  <Label value>
1

$$$$

----------
Assay: Oral bioavailability in Wistar rat at 10 mg/kg by LC-MS/MS analysis
Type: ADME, organism-based
Details: in vivo
Readout type: bioavailability (%)

>  <Sample smiles>
CCc1cc(-c2noc(-c3cc(C)nc(N(CC)CC)c3)n2)cc(C)c1OC[C@@H](O)CNC(=O)CO

>  <Test value>
52

$$$$
>  <Sample smiles>
CCc1cc(-c2noc(-c3cc(C)nc(C(CC)CC)c3)n2)cc(C)c1OC[C@@H](O)CNC(=O)CO

>  <Test value>
126

$$$$

----------
Assay: Tmax in Beagle dog at 3 mg/kg, po by LC-MS/MS analysis
Type: ADME, organism-based, Canis lupus familiaris
Parameters: dose 3 mg/kg, route oral
Conditions: in vivo

>  <Sample smiles>
CCc1cc(-c2noc(-c3cc(C)nc(N(CC)CC)c3)n2)cc(C)c1OC[C@@H](O)CNC(=O)CO

>  <Tmax, h>
1

$$$$

----------
Test: Volume of distribution at steady state in cynomolgus monkey at 1 mg/kg, iv by LC-MS/MS analysis
Assay type: ADME, organism-based, Macaca fascicularis
Design: dose 1 mg/kg, route intravenous
Settings: in vivo, read-out: Vdss

>  <Sample smiles>
CCc1cc(-c2noc(-c3cc(C)nc(N(CC)CC)c3)n2)cc(C)c1OC[C@@H](O)CNC(=O)CO

>  <Vd / L/kg>
1.1

$$$$

----------
Assay: AUC (0 to 24 hrs) in Wistar rat at 10 mg/kg, po by LC-MS/MS analysis
Type: ADME, organism-based
Set-up: time < 24 hr, dose 10 mg/kg, route oral
Settings: plasma

>  <Sample smiles>
CCc1cc(-c2noc(-c3cc(C)nc(C(CC)CC)c3)n2)cc(C)c1OC[C@@H](O)CNC(=O)CO

>  <Unit text>
ng·h/mL

>  <AUC(0-t) at 24 h>
1760

$$$$

----------
Assay: Oral bioavailability in Wistar rat at 1 mg/kg by LC-MS/MS analysis
Format: ADME, organism-based
Conditions: in vivo
Readout type: bioavailability

>  <Sample smiles>
CCc1cc(-c2noc(-c3cc(C)nc(C4CCCC4)c3)n2)cc(C)c1OC[C@@H](O)CNC(=O)CO

>  <Test value>
39%

$$$$

----------
Assay: Drug uptake in Wistar rat brain at 10 mg/kg, po after 2 hrs
Format: ADME, organism-based
Set-up: dose 10 mg/kg, route oral
Settings: read-out: Drug uptake
This section presents molecules with their documented log10 of concentration at 2 h values.
Readout type: log10 of concentration at 2 h (log10 of the value in ng/mL)

>  <Sample smiles>
CCc1cc(-c2nc(-c3cc(C)nc(N(CC)CC)c3)no2)cc(C)c1OC[C@@H](O)CNC(=O)CO

>  <log10 of concentration at 2 h>
2.15

$$$$
>  <Sample smiles>
CCc1cc(-c2noc(-c3cc(C)nc(N(CC)CC)c3)n2)cc(C)c1OC[C@@H](O)CNC(=O)CO

>  <log10 of concentration at 2 h>
2.43

$$$$
>  <Sample smiles>
CCc1cc(-c2nnc(-c3cc(C)nc(N(CC)CC)c3)o2)cc(C)c1OC[C@@H](O)CO

>  <log10 of concentration at 2 h>
2.78

$$$$
>  <Sample smiles>
CCc1cc(-c2nnc(-c3cc(C)nc(N(CC)CC)c3)o2)cc(C)c1OC[C@@H](O)CNC(=O)CO

>  <log10 of concentration at 2 h>
1.66

$$$$
>  <Sample smiles>
CCc1cc(-c2noc(-c3cc(C)nc(N(CC)CC)c3)n2)cc(C)c1OC[C@@H](O)CO

>  <log10 of concentration at 2 h>
2.64

$$$$

----------
This section presents compounds with their documented concentration at 24 h values.
Assay: Plasma concentration in Wistar rat at 10 mg/kg, po after 24 hrs
Assay type: ADME, organism-based
Parameters: dose 10 mg/kg, route oral
Readout type: concentration at 24 h

>  <Sample smiles>
CCc1cc(-c2nnc(-c3cc(C)nc(N(CC)CC)c3)o2)cc(C)c1OC[C@@H](O)CO

>  <Test value>
4 ng/mL

$$$$
>  <Sample smiles>
CCc1cc(-c2noc(-c3cc(C)nc(N(CC)CC)c3)n2)cc(C)c1OC[C@@H](O)CNC(=O)CO

>  <Test value>
412 ng/mL

$$$$
>  <Sample smiles>
CCc1cc(-c2noc(-c3cc(C)nc(N(CC)CC)c3)n2)cc(C)c1OC[C@@H](O)CO

>  <Test value>
22 ng/mL

$$$$
>  <Sample smiles>
CCc1cc(-c2nc(-c3cc(C)nc(N(CC)CC)c3)no2)cc(C)c1OC[C@@H](O)CNC(=O)CO

>  <Test value>
230 ng/mL

$$$$

----------
Test: AUC (0 to 24 hrs) in Wistar rat at 1 mg/kg, po by LC-MS/MS analysis
Assay type: ADME, organism-based
Set-up: time < 24 hr, dose 1 mg/kg, route oral
Conditions: plasma

>  <Sample smiles>
CCc1cc(-c2noc(-c3cc(C)nc(C4CCCC4)c3)n2)cc(C)c1OC[C@@H](O)CNC(=O)CO

>  <AUC(0-t) at 24 h / ng·h/mL>
436

$$$$

----------
Experiment: Tmax in Wistar rat at 1 mg/kg, po by LC-MS/MS analysis
Type: ADME, organism-based
Parameters: dose 1 mg/kg, route oral
Conditions: in vivo
Readout type: Tmax (h)

>  <Sample smiles>
CCc1cc(-c2noc(-c3cc(C)nc(C4CCCC4)c3)n2)cc(C)c1OC[C@@H](O)CNC(=O)CO

>  <Readout type>
Tmax

>  <Unit text>
h

>  <Test value>
3

$$$$

----------
Test: Plasma concentration in Wistar rat at 10 mg/kg, po after 6 hrs
Type: ADME, organism-based
Design: dose 10 mg/kg, route oral

>  <Sample smiles>
CCc1cc(-c2noc(-c3cc(C)c(C4CCCC4)cn3)n2)cc(C)c1OC[C@@H](O)CNC(=O)CO

>  <concentration at 6 h>
3690 nM

$$$$
>  <Sample smiles>
CCc1cc(-c2noc(-c3cc(C4CCCC4)cc(C)n3)n2)cc(C)c1OC[C@@H](O)CNC(=O)CO

>  <concentration at 6 h>
1070 nM

$$$$
>  <Sample smiles>
CCc1cc(-c2nnc(-c3cc(C)nc(N(CC)CC)c3)o2)cc(C)c1OC[C@@H](O)CNC(=O)CO

>  <concentration at 6 h>
510 ng/mL

$$$$

The values you see were collected from ChEMBL document CHEMBL3124929.
